compounds and their reported pKi
target entity: ifenprodil binding site of NR2B subunit containing NMDA receptors (Rattus norvegicus, UniProt P35439+Q00960)
Construct: 400 μl of the membrane suspension, containing a total amount of 2.5 mg original wet weight of tissue
Sequence (Q00960 27-1482, other chains not shown): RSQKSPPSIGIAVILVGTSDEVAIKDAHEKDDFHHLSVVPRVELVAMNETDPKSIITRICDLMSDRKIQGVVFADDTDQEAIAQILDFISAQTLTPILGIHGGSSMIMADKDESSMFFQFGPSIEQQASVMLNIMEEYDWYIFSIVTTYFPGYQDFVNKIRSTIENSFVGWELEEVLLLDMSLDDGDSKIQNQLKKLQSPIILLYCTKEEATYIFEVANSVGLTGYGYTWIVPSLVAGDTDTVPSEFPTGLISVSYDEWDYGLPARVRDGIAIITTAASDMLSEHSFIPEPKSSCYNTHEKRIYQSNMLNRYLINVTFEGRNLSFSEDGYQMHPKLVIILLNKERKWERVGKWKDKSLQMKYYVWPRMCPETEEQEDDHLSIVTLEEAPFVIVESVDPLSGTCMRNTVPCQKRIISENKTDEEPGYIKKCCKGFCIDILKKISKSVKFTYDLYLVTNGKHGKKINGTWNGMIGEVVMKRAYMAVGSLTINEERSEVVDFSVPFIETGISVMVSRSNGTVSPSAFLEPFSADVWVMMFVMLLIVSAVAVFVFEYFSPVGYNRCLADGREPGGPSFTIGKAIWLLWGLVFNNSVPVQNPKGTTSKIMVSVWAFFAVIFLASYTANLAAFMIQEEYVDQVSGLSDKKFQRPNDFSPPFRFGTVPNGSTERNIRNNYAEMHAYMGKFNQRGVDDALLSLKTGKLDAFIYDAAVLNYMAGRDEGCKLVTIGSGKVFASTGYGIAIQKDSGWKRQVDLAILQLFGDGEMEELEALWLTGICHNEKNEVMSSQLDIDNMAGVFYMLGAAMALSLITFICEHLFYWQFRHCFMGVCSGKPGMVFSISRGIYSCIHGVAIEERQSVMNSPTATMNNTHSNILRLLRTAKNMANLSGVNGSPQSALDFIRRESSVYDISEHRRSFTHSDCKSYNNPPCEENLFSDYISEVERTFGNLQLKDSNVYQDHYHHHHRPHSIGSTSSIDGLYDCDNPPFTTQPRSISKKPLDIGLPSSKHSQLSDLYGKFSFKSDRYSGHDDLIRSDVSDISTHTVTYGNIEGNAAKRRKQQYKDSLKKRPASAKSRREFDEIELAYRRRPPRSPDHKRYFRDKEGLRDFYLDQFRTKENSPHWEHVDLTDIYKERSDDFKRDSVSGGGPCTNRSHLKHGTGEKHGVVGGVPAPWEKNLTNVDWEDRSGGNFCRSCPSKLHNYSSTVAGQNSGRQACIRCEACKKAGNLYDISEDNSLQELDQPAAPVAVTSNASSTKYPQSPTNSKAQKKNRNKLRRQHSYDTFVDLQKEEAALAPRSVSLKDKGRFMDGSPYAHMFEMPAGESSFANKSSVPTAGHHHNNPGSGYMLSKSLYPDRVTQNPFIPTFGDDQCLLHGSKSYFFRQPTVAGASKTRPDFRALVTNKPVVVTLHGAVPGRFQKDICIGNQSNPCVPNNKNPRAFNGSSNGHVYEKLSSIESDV
protocol notes: Competition binding assay against [3H]ifenprodil on rat forebrain membranes
run conditions: displacement of 5 nM [3H]ifenprodil; mean±SEM of 2-6 determinations in triplicate
Counter-ions that a name gives are not always drawn.
pKi (log units): -log10 of the concentration in mol/L.

Example results:
Req: Which measured pKi value corresponds to Fc1ccc(-c2cccc(CNC3CCCC3)c2)cc1 [Example 11, hydrochloride] ?
Resp: 7.88

Req: If you can, please state the reported pKi value of FCCOc1cc(F)ccc1-c1cncc(CNC2CCCC2)c1 [Example 7, dihydrochloride] .
Resp: 6.81

Req: Param item = FCOc1cc(F)ccc1-c1cncc(CNC2CCCC2)c1 [Example 6, dihydrochloride] ; retrieve measured pKi.
Resp: 7.81

Req: GET /values?readout=pKi&item= COc1cc(F)ccc1-c1cncc(CNCC2CC2)c1 [Example 2, dihydrochloride]
Resp: 8.06

Req: # query: pKi of entry Fc1ccc(-c2cncc(CNC3CCCC3)c2)cc1 [Example 10, dihydrochloride]
Resp: 8.48

Further cases:
Req: Which pKi is reported for this compound? Oc1cc(F)ccc1-c1cncc(CNC2CCCC2)c1
Resp: 5.89

Req: Look at this compound and give its reported pKi. Fc1ccc(-c2cncc(CNCC3CC3)c2)cc1 [Example 12, dihydrochloride]
Resp: 8.54

Req: Requested read-out: pKi. Entry: COc1cc(F)ccc1-c1cccc(CNCC2CC2)c1 [Example 4, hydrochloride]
Resp: 7.17

Reference source: patent US20150183743A1
